# Tested on: Fibroblast
# assay-details: Incucyte cell viability with human fibroblast; further: unitless GR value; below 1 slowed growth and below 0 cell loss
# Format: toxicity, cell-based
# settings: 0 h, 10 µM, compound concentration 10 uM, replicate number 2
Label scheme for Growth Rate: lower than 0.06 is false, 0.06 and above is true.

{"columns": ["molecule", "group-label"],
 "data": [
  ["CCn1c(CNC(=O)c2ncc(C)nc2N)[n+](CC)c2ccc(C(=O)N(C)CCN(C)C)cc21.Cl.Cl.[Cl-]", "false"],
  ["Cc1cc(OCc2nc3ccccc3s2)ccc1NC(=O)Nc1ccc(Cl)c(Cl)c1", "false"],
  ["COc1cc(C(=O)NCCOCCOCCOCC(=O)N[C@H](C(=O)N2C[C@H](O)C[C@H]2C(=O)NCc2ccc(-c3scnc3C)cc2)C(C)(C)C)ccc1Nc1ncc(C(F)(F)F)c(Oc2cccc3c2C(=O)CC3)n1", "true"],
  ["CCN(C(=O)c1cc(F)ccc1Oc1cncnc1N1CC2(CCN(C[C@H]3CC[C@H](NS(=O)(=O)CC)CC3)CC2)C1)C(C)C [REVUMENIB]", "true"]
]}

### Prompt In plain terms: is recorded Growth Rate at least 0.06 for O=C(O)CCCc1cc2cc(Cl)ccc2n1S(=O)(=O)c1ccc2ncsc2c1 [LANIFIBRANOR] ?
### Response true

### Prompt In plain terms: is recorded Growth Rate at least 0.06 for CSc1nc2c(c(=O)n(C)c(=O)n2C)n1C ?
### Response false

### Prompt In plain terms: is recorded Growth Rate at least 0.06 for COc1cc(-c2cc3ncccc3c(O[C@H](C)[C@H]3CNC(=O)C3)n2)cc(OC)c1OC.Cl ?
### Response false
